- Tested on: PC-3 prostate
- PROTOCOL_NOTES: NCI tumour cell line growth inhibition, 48 h
Use Condition met when the recorded TGI is no lower than 30 µM; use Condition not met when it is lower.

CO[C@@H](c1ccccc1)[C@H](O)[C@](O)(c1ccccc1)P(=O)(OC)OC ... Condition met
CSc1c(C(=O)Nc2ccc(Cl)cc2)c(N)[nH]c(=O)c1C#N ... Condition met
CCCCC[C@H]1C/C=C2/C(=O)C(Cl)=C[C@@H]2C/C=C\CCCC(=O)O[C@@H](CCCCC)C/C=C2/C(=O)C(Cl)=C[C@@H]2C/C=C\CCCC(=O)O1 ... Condition not met
Cn1cc(-c2ccc3c(c2)CCN3C(=O)Cc2cccc(C(F)(F)F)c2)c2c(N)ncnc21 ... Condition not met
Cc1cn2c(/C=N/N/C(N)=N\N)c(-c3ccc(Cl)c([N+](=O)[O-])c3)nc2s1 ... Condition not met

Dear colleague, could you confirm whether "CCCCCc1c(C)[nH]c(/C=C2\N=C(c3ccc[nH]3)C=C2Oc2ccc(Cl)cc2)c1C" has TGI at or above 30 µM?
Condition not met

Test whether the compound "CC(C)(Br)C(=O)/C=C/c1ccccc1" records TGI of 30 µM or higher.
Condition met

hey, is TGI for this one >= 30 µM? "NC(N)=NC(N)=Nc1c(F)c(F)c(F)c(F)c1F"
Condition met

Assess whether reported TGI for COC1OC(COC(=O)NCCCCC(=O)C(F)(F)F)C(O)C(O)C1O (centres undefined) sits at 30 µM or higher.
Condition met

###

- System: HCT-15 colon
- PROTOCOL_NOTES: NCI tumour cell line growth inhibition, 48 h
// reported TGI for each item listed
Numbers only here, please. The scale is µM.

O=C(O)c1cc2c(s1)C(=O)c1sccc1C2=O ... 11.9
CCCCCCCCCCCC1N=C(N)NC(CCCO)=C1C(=O)OC (stereo not given) ... 29.7
O=c1cccccc1NCCCCCCCCCNc1cccccc1=O ... 39.9
CN(C)CCNC(=O)c1ccc(Cl)c2c(Nc3ccc(S(N)(=O)=O)cc3)c3ccccc3nc12 ... 15.5

Okay, next one:
Measured TGI, "CC(C)OC(=O)c1ccc2[nH]c(O)c(C(=Nc3ccc(N(C)C(=O)CN4CCN(C)CC4)cc3)c3ccccc3)c2c1" : 1.52

###

Listing of recorded TGI by entry.
- Test system: T-47D breast
- PROTOCOL_NOTES: NCI tumour cell line growth inhibition, 48 h

O=[N+]([O-])c1ccc(N=NN2CCCC2)cc1 ... > 100 µM
O=C1N[C@@H]([C@H](CCCCCO)OC(=O)c2ccccc2)CO1 ... > 100 µM

Shifting focus to the molecule that follows.
// recorded TGI for "CCc1c[nH]c2ncnc(N3CC[C@@](N)(CNC(=O)c4ccc(F)cc4F)C3)c12" : > 100 µM

###

- Test system: DU-145 prostate
- PROTOCOL_NOTES: NCI tumour cell line growth inhibition, 48 h; in the data active = GI50 below about 0.43 µM; inactive = the rest
Respond with a class label; see active, inactive

Record excerpt, results attached:
COC(=O)[C@@H]1CCCN1C(=O)[C@@H]1CCCN1C(=O)[C@@H](Cc1c[nH]c2ccccc12)NC(=S)Nc1cc(C(F)(F)F)cc(C(F)(F)F)c1 ... inactive
CCOC(=O)c1c(C)n(Cc2ccc(Cl)cc2Cl)c2c1cc1oc(=O)c(=O)n3c(Cc4ccccc4)nc2c13 ... inactive
O=C(NN1C(=O)CSC1c1ccc(Cl)cc1)c1[nH]c2ccc(F)cc2c1-c1ccccc1 (stereo not drawn) ... inactive
Cn1cc(-c2ccc(CNc3cc(-c4cnc5cc(OCCCN6CCCC6)ccn45)ncn3)cc2)cn1 ... inactive
Oc1cc(Cl)ccc1Oc1ccc(Cl)cc1Cl ... inactive

# lookup: test call for CCN1C(=O)N(CC)C2C1NN=c1s/c(=C3\C(=O)N(C)c4ccccc43)c(=O)n12 (stereo not drawn)
inactive

Just curious, what result did "CCCCC[C@H]1C/C=C2/C(=O)C(Cl)=C[C@@H]2C/C=C\CCCC(=O)O[C@@H](CCCCC)C/C=C2/C(=O)C(Cl)=C[C@@H]2C/C=C\CCCC(=O)O1" get here?
inactive

In this assay, the call recorded for "COc1ccc2c(c1)nc(N)c1c3cccnc3cn21" was what?
active
